# pIC50 values compiled below
System: C6
test-protocol: Cytotoxicity against rat C6 cells assessed as cell viability measured upto 108 hrs by MTT assay
Assay type: functional, cell-based
experimental-context: C6, 108 h
Hey, just a heads up that pIC50 is the negative log base 10 of the concentration in molar.

Completed entries (count: 3):
>  <molecule>
O=C1c2ccccc2C(=O)N1c1nc2scc(-c3ccc(Br)cc3)n2n1

>  <pIC50>
5.09

$$$$
>  <molecule>
O=C1c2ccccc2C(=O)N1c1nc2scc(-c3ccc(-c4ccccc4)cc3)n2n1

>  <pIC50>
5.24

$$$$
>  <molecule>
O=[N+]([O-])c1ccc(-c2csc3nc(/N=C/c4ccc(Cl)cc4)nn23)cc1

>  <pIC50>
5.06

$$$$

Then this compound:
Any idea what pIC50 was measured for COc1ccc(-c2csc3nc(/N=C/c4ccc(Cl)cc4Cl)nn23)cc1 ? 5.12
